- Test system: 292921-168-R-J2-PDC KRAS tumor spheroid viability
- test.details: Anticancer human tumor 292921-168-R-J2-PDC patient-derived pancreatic carcinoma cell line growth inhibition [KRAS2]
- condition.summary: curve of first compound; second compound 0.1 µM; spheroids with HUVEC and MSC
pIC50: −log10 of the molar value.
measurement.label: pIC50

{"molecule": "CN(C)C/C=C/C(=O)Nc1cc2c(Nc3ccc(F)c(Cl)c3)ncnc2cc1O[C@H]1CCOC1 + CC1OCC2(CCN(c3cnc(Sc4ccnc(N)c4Cl)c(N)n3)CC2)C1N", "measurement.label": "pIC50", "value.relation.sign": "<", "observed.value": 7.00}
{"molecule": "O=C(c1cc(Cc2n[nH]c(=O)c3ccccc23)ccc1F)N1CCN(C(=O)C2CC2)CC1 + CC1OCC2(CCN(c3cnc(Sc4ccnc(N)c4Cl)c(N)n3)CC2)C1N", "measurement.label": "pIC50", "value.relation.sign": "=", "observed.value": 5.14}
{"molecule": "CC(C)NCC(C(=O)N1CCN(c2ncnc3c2C(C)CC3O)CC1)c1ccc(Cl)cc1 (stereo not drawn) + COc1cc2nc(C)nc(NC(C)c3cc(N)cc(C(F)(F)F)c3)c2cc1OC1CCOC1", "measurement.label": "pIC50", "value.relation.sign": "=", "observed.value": 5.05}

---

- Tested on: 292921-168-R-J2-PDC KRAS tumor spheroid viability
- test.details: Anticancer human tumor 292921-168-R-J2-PDC cell line growth inhibition [KRAS2];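 also: drug exposure lasted seven days after spheroids formed for three days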;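 as to viability, T/C: percent of DMSO vehicle control viability which is 100%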
- condition.summary: second compound 1 µM; first compound 0.00316 µM; stronger effect = lower value; spheroids with HUVEC and MSC
measurement.label: viability, T/C (%)

{"compound": "CC(C)n1nc(-c2ccc3oc(N)nc3c2)c2c(N)ncnc21 + CC1OCC2(CCN(c3cnc(Sc4ccnc(N)c4Cl)c(N)n3)CC2)C1N", "tested.system": "292921-168-R-J2-PDC KRAS tumor spheroid viability", "measurement.label": "viability, T/C", "observed.value": 26.1}
{"compound": "Cn1ncnc1[C@H]1c2n[nH]c(=O)c3cc(F)cc(c23)N[C@@H]1c1ccc(F)cc1 + COc1cc2nc(C)nc(NC(C)c3cc(N)cc(C(F)(F)F)c3)c2cc1OC1CCOC1", "tested.system": "292921-168-R-J2-PDC KRAS tumor spheroid viability", "measurement.label": "viability, T/C", "observed.value": 74.9}
{"compound": "CC(=O)Nc1cccc(-n2c(=O)n(C3CC3)c(=O)c3c(Nc4ccc(I)cc4F)n(C)c(=O)c(C)c32)c1 + COc1cc2nc(C)nc(NC(C)c3cc(N)cc(C(F)(F)F)c3)c2cc1OC1CCOC1", "tested.system": "292921-168-R-J2-PDC KRAS tumor spheroid viability", "measurement.label": "viability, T/C", "observed.value": 13.8}

---

- System: 292921-168-R-J2-PDC KRAS tumor spheroid viability
- test.details: Anticancer human tumor 292921-168-R-J2-PDC cell line growth inhibition [KRAS2];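 also: drug exposure lasted seven days after spheroids formed for three days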;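 as to viability, T/C: percent of DMSO vehicle control viability which is 100%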
- condition.summary: second compound 0.316 µM; first compound 10 µM; stronger effect = lower value; spheroids with HUVEC and MSC
The entries below are paired with their reported viability, T/C.

{"compound": "Cn1nccc1Nc1nccc(-c2cc3c(s2)C(C)(C)N(CCN2CCOCC2)C3=O)n1 + C=CC(=O)N1CCN(c2nc(=O)n(-c3c(C)ccnc3C(C)C)c3nc(-c4c(O)cccc4F)c(F)cc23)C(C)C1", "tested.system": "292921-168-R-J2-PDC KRAS tumor spheroid viability", "units.of.measure": "%", "viability, T/C": 12.6}
{"compound": "CCNC(=O)CC1N=C(c2ccc(Cl)cc2)c2cc(OC)ccc2-n2c(C)nnc21 (centres undefined) + CC1OCC2(CCN(c3cnc(Sc4ccnc(N)c4Cl)c(N)n3)CC2)C1N", "tested.system": "292921-168-R-J2-PDC KRAS tumor spheroid viability", "units.of.measure": "%", "viability, T/C": 19.7}
{"compound": "CCNC(=O)CC1N=C(c2ccc(Cl)cc2)c2cc(OC)ccc2-n2c(C)nnc21 (centres undefined) + C=CC(=O)N1CCN(c2nc(OCC3CCCN3C)nc3c2CCN(c2cccc4cccc(C)c24)C3)CC1CC#N", "tested.system": "292921-168-R-J2-PDC KRAS tumor spheroid viability", "units.of.measure": "%", "viability, T/C": 29.2}
{"compound": "Cn1nccc1Nc1nccc(-c2cc3c(s2)C(C)(C)N(CCN2CCOCC2)C3=O)n1 + CNCc1ccccc1-c1csc(C(C)Nc2nc(C)nc3cc(OC)c(OC)cc23)c1", "tested.system": "292921-168-R-J2-PDC KRAS tumor spheroid viability", "units.of.measure": "%", "viability, T/C": 10.6}
{"compound": "O=C(c1cc(Cc2n[nH]c(=O)c3ccccc23)ccc1F)N1CCN(C(=O)C2CC2)CC1 + C=CC(=O)N1CCN(c2nc(=O)n(-c3c(C)ccnc3C(C)C)c3nc(-c4c(O)cccc4F)c(F)cc23)C(C)C1", "tested.system": "292921-168-R-J2-PDC KRAS tumor spheroid viability", "units.of.measure": "%", "viability, T/C": 45.1}
{"compound": "CC(C)NCC(C(=O)N1CCN(c2ncnc3c2C(C)CC3O)CC1)c1ccc(Cl)cc1 (centres undefined) + COc1cc2nc(C)nc(NC(C)c3cc(N)cc(C(F)(F)F)c3)c2cc1OC1CCOC1", "tested.system": "292921-168-R-J2-PDC KRAS tumor spheroid viability", "units.of.measure": "%", "viability, T/C": 44.7}
{"compound": "COc1cc2nccc(Oc3ccc(NC(=O)C4(C(=O)Nc5ccc(F)cc5)CC4)cc3)c2cc1OC + C=CC(=O)N1CCN(c2nc(OCC3CCCN3C)nc3c2CCN(c2cccc4cccc(C)c24)C3)CC1CC#N", "tested.system": "292921-168-R-J2-PDC KRAS tumor spheroid viability", "units.of.measure": "%", "viability, T/C": 18.4}
{"compound": "COC(=O)c1ccc2c(C(=Nc3ccc(N(C)C(=O)CN4CCN(C)CC4)cc3)c3ccccc3)c(O)[nH]c2c1 + CNCc1ccccc1-c1csc(C(C)Nc2nc(C)nc3cc(OC)c(OC)cc23)c1", "tested.system": "292921-168-R-J2-PDC KRAS tumor spheroid viability", "units.of.measure": "%", "viability, T/C": 0.68}
{"compound": "COc1cc(Nc2ncc3c(n2)-c2ccc(Cl)cc2C(c2c(F)cccc2OC)=NC3)ccc1C(=O)O + COc1cc2nc(C)nc(NC(C)c3cc(N)cc(C(F)(F)F)c3)c2cc1OC1CCOC1", "tested.system": "292921-168-R-J2-PDC KRAS tumor spheroid viability", "units.of.measure": "%", "viability, T/C": 14.9}
